Assay System: T1, human insulin receptor (human, UniProt P06213 28-1382)
T1 construct: whole, on cells; Endogenous receptor on IM-9 cells; also called IR
T1 sequence (P06213 28-1382): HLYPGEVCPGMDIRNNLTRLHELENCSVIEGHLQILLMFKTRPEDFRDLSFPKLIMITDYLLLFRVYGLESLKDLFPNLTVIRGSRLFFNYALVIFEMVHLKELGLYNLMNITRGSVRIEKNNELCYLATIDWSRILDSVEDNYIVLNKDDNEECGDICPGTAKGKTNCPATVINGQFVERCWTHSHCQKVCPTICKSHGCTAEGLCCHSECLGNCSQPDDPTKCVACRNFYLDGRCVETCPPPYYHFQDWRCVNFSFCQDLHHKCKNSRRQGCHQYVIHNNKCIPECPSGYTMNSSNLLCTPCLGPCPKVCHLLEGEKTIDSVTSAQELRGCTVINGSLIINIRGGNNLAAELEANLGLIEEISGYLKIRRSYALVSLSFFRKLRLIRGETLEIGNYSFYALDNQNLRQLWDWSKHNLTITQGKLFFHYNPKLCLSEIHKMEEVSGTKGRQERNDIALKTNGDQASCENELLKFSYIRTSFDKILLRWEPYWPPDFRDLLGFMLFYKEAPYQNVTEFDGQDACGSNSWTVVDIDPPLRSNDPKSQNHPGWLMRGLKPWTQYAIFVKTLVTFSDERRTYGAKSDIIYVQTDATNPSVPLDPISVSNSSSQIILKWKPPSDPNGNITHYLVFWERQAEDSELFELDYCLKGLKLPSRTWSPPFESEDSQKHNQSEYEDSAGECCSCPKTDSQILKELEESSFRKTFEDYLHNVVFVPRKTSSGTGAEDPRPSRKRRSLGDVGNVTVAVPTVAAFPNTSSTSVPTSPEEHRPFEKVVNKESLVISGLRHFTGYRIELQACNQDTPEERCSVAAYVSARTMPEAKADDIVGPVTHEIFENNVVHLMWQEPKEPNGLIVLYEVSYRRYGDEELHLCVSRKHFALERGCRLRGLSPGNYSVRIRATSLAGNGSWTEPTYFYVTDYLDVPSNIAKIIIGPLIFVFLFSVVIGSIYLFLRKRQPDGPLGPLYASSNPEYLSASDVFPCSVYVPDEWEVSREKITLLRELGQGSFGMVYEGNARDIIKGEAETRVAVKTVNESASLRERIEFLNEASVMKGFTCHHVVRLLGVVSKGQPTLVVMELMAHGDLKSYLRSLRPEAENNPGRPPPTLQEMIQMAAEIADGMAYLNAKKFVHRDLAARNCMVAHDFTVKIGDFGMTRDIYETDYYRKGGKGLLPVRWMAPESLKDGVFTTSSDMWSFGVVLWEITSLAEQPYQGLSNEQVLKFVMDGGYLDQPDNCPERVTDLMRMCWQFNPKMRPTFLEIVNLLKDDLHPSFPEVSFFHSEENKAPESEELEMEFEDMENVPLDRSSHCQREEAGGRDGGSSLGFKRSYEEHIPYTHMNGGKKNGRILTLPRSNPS
Assay Comment: competition with biotinylated RHI on IM-9 cells, flow cytometry, 4 C
IC50 values by entry
Numeric only. Scale: nM

Summary for this binder, insulin-Fc fusion protein of SEQ ID NO: 112 (Fc fusion, Feline IgG2 Fc, B16A insulin polypeptide; homodimer) FVNQHLCGSDLVEALALVCGERGFFYTDPTGGGPRRGIVEQCCHSICSLYQLENYCNGGGGSGGGGGEGPKCPVPEIPGAPSVFIFPPKPKDTLSISRTPEVTCLVVDLGPDDSNVQITWFVDNTEMHTAKTRPREEQFNSTYRVVSVLPILHQDWLKGKEFKCKVNSKSLPSAMERTISKAKGQPHEPQVYVLPPTQEELSENKVSVTCLIKGFHPPDIAVEWEITGQPEPENNYQTTPPQLDSDGTYFLYSRLSVDRSHWQRGNTYTCSVSHEALHSHHTQKSLTQSPG : IC50 is 53

Summary for this binder, insulin-Fc fusion protein of SEQ ID NO: 110 (Fc fusion, homodimer) FVNQHLCGSDLVEALALVCGERGFFYTDPTGGGPRRGIVEQCCHSICSLYQLENYCNGGGGAGGGGGEGPKCPVPEIPGAPSVFIFPPKPKDTLSISRTPEVTCLVVDLGPDDSNVQITWFVDNTEMHTAKTRPREEQFNSTYRVVSVLPILHQDWLKGKEFKCKVNSKSLPSAMERTISKAKGQPHEPQVYVLPPTQEELSENKVSVTCLIKGFHPPDIAVEWEITGQPEPENNYQTTPPQLDSDGTYFLYSRLSVDRSHWQRGNTYTCSVSHEALHSHHTQKSLTQSPG : IC50 is 41

Summary for this binder, insulin-Fc fusion protein of SEQ ID NO: 108 (Fc fusion, about 49% homodimer) FVNQHLCGSDLVEALALVCGERGFFYTDPTGGGPRRGIVEQCCHSICSLYQLENYCNGGGGSGGGGDCPKCPPPEMLGGPSIFIFPPKPKDTLSISRTPEVTCLVVDLGPDDSDVQITWFVDNTQVYTAKTSPREEQFNSTYRVVSVLPILHQDWLKGKEFKCKVNSKSLPSPIERTISKDKGQPHEPQVYVLPPAQEELSRNKVSVTCLIEGFYPSDIAVEWEITGQPEPENNYRTTPPQLDSDGTYFLYSRLSVDRSRWQRGNTYTCSVSHEALHSHHTQKSLTQSPG : IC50 is 62
